# Tgt: Histone deacetylase 1 (Homo sapiens)
# Sequence (Q13547 whole entry): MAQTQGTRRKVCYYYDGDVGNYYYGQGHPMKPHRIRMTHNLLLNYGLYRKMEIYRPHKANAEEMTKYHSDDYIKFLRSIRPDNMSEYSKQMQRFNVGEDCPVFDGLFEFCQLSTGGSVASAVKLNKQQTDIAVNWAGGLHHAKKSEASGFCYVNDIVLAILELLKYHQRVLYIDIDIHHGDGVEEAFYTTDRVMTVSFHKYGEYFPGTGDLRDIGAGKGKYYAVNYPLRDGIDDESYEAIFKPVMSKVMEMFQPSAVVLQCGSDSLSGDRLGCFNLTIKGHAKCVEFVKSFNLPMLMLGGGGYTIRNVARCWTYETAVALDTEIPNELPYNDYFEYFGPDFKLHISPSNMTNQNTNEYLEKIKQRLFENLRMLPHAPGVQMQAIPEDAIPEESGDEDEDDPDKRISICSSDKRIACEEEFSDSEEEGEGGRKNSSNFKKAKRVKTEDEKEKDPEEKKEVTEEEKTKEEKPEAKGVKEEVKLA
# Assay remarks: Inhibition of FLAG-tagged HDAC1 expressed in HEK293 cells by fluorescent assay
pIC50: −log10 of the molar value.
Measured attribute: pIC50

Reference set, count: 2
Reported pIC50 for `Cc1[nH]c2ccccc2c1CCN1CCc2ccc(/C=C/C(=O)NO)cc2CC1` : what is it?
7.12

Item O=C(/C=C/c1ccc(CN2CCCC(c3c(-c4ccccc4)[nH]c4ccccc34)C2)cc1)NO (stereo unspecified) has what recorded pIC50?
7.96

[1] Cc1[nH]c2ccccc2c1C1CCCN(Cc2ccc(/C=C/C(=O)NO)cc2)C1 (stereo unspecified)
[2] O=C(/C=C/c1ccc(CN2CCCC(c3c[nH]c4ccccc34)C2)c(F)c1)NO (stereo unspecified)
Pick the one with the larger pIC50: 1 vs 2 Response format: the label of the selected entry.
1
(1: 8.30, 2: 6.87)

* * *

// Histone deacetylase 4 (Homo sapiens) IC50 records
Numbers only here, please. The scale is nM.

Name the recorded IC50 for `CC(C)(C)c1[nH]c2ccccc2c1[C@@H]1CCCN(Cc2ccc(/C=C/C(=O)NO)cc2F)C1` .
38

As a next step, examine the molecule that follows.
Quick one: IC50 for `CC(C)(C)c1[nH]c2ccccc2c1[C@H]1CCCN(Cc2ccc(/C=C/C(=O)NO)cc2F)C1` ?
28

* * *

Entries and their IC50
# Tgt: Protein deacetylase HDAC6 (Homo sapiens)
# Sequence (Q9UBN7 whole entry): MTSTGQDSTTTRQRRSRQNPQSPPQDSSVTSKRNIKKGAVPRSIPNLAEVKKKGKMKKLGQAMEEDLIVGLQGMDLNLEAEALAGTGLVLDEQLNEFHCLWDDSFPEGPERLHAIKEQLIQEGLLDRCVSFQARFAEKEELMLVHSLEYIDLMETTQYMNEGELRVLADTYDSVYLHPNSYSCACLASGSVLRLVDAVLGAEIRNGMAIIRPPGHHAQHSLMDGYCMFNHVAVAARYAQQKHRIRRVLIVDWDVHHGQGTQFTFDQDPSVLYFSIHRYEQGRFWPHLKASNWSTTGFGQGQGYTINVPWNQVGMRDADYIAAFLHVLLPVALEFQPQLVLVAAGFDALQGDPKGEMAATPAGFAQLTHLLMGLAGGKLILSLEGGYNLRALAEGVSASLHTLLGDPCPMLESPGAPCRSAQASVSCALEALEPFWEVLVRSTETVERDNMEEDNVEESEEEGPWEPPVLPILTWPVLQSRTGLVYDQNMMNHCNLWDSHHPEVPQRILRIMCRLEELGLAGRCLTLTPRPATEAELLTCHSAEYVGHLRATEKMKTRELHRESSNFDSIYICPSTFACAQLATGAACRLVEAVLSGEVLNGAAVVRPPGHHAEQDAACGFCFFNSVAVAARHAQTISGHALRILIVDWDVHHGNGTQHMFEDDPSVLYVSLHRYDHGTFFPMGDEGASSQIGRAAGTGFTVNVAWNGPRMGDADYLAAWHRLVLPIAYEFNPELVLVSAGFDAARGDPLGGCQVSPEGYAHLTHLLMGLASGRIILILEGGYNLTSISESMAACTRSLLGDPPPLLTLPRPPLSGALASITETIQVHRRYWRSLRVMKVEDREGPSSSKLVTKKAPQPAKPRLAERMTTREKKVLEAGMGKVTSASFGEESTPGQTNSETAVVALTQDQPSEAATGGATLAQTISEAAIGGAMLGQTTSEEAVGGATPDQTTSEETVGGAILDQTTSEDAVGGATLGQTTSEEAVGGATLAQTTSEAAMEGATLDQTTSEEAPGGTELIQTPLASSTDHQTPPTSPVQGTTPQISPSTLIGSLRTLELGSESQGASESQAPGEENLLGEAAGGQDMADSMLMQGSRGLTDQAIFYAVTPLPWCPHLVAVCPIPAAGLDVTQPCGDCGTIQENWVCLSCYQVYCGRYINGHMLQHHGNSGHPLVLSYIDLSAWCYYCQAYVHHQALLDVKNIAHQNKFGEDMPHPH
# Assay remarks: Inhibition of FLAG-tagged HDAC6 expressed in HEK293 cells by fluorescent assay
Report as a plain number; the unit nM is understood.

What does the record list as IC50 for `CC(C)(C)c1[nH]c2ccccc2c1[C@H]1CCCN(Cc2ccc(/C=C/C(=O)NO)cc2F)C1` ?
118

Now look at this one.
Fill blank: measured IC50 of the molecule `CC(C)(C)c1[nH]c2ccccc2c1[C@@H]1CCCN(Cc2ccc(/C=C/C(=O)NO)cc2F)C1` is ____.
110

* * *

# Tgt: Voltage-gated inwardly rectifying potassium channel KCNH2 (Homo sapiens)
# Sequence (Q12809 whole entry): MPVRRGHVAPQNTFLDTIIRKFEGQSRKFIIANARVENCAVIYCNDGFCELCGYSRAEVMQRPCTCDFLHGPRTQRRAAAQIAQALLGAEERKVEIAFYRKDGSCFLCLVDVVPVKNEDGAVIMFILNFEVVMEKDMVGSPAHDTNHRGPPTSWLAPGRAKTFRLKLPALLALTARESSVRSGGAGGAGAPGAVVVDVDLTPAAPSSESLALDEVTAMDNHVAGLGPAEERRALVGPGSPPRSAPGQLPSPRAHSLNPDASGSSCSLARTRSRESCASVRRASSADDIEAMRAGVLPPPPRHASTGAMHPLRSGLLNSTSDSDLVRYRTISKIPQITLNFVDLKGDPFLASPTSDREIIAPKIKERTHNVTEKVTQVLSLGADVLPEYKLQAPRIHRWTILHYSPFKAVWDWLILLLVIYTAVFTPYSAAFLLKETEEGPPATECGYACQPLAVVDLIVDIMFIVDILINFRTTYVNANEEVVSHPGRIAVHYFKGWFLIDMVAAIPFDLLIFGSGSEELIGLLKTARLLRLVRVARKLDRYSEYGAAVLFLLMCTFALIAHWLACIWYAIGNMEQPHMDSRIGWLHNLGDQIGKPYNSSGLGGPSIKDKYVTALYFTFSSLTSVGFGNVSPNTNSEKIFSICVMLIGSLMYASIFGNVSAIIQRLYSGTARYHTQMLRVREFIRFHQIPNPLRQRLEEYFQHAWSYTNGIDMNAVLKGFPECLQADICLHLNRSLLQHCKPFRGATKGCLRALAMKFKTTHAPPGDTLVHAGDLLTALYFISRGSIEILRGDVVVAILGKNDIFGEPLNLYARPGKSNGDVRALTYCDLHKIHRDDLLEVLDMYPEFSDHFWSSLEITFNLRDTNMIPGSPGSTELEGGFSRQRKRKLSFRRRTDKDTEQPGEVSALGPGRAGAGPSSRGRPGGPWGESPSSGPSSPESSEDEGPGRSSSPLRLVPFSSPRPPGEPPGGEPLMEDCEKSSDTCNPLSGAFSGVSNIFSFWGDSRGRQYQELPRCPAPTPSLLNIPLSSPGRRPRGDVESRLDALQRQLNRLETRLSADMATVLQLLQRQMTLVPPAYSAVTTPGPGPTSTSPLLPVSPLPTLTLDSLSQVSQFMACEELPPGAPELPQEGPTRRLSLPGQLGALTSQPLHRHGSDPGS
# Assay remarks: Inhibition of human ERG expressed in CHO cells by automated patch clamp electrophysiology assay
Each item that follows carries a reported pIC50.
Answer as the number alone; pIC50 is minus log10 of concentration in mol/L.

Request body: readout pIC50, system Voltage-gated inwardly rectifying potassium channel KCNH2 (Homo sapiens), query `Cc1[nH]c2ccccc2c1CCN1CCc2ccc(/C=C/C(=O)NO)cc2C1` . Return the value.
5.57

// lookup pIC50 | system=Voltage-gated inwardly rectifying potassium channel KCNH2 (Homo sapiens) | key= Cc1[nH]c2ccccc2c1CCN1CCCC1c1ccc(/C=C/C(=O)NO)cc1 (stereo not drawn)
4.71

Hi! What's the reported pIC50 for `Cc1[nH]c2ccccc2c1CCN1Cc2ccc(/C=C/C(=O)NO)cc2C1` on Voltage-gated inwardly rectifying potassium channel KCNH2 (Homo sapiens)?
5.32

Identify the measured pIC50 of Cc1[nH]c2ccccc2c1C1CCN(Cc2ccc(/C=C/C(=O)NO)cc2)C1 (stereo not drawn) for Voltage-gated inwardly rectifying potassium channel KCNH2 (Homo sapiens).
4.87

* * *

# Tgt: Histone deacetylase 3 (Homo sapiens)
# Sequence (O15379 whole entry): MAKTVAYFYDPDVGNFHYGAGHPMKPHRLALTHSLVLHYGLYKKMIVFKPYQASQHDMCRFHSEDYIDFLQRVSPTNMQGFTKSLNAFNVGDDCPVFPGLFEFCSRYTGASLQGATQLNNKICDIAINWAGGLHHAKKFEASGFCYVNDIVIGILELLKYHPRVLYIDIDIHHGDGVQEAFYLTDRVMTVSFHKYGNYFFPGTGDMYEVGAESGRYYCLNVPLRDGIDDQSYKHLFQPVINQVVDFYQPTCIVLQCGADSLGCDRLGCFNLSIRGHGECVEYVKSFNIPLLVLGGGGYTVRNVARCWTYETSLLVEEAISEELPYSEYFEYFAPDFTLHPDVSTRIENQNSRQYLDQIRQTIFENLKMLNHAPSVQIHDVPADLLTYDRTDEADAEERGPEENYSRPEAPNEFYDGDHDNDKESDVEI
# Assay remarks: Inhibition of FLAG-tagged HDAC3 expressed in HEK293 cells by fluorescent assay
# Format: cell-based
Measured attribute: IC50 (nM)
Express the result in nM but write the number alone.

Recorded IC50 of `CC(C)(C)c1[nH]c2ccccc2c1[C@H]1CCCN(Cc2ccc(/C=C/C(=O)NO)cc2F)C1` , please.
9

Shifting focus to the compound that follows.
I would be grateful if you could share the reported IC50 for `CC(C)(C)c1[nH]c2ccccc2c1[C@@H]1CCCN(Cc2ccc(/C=C/C(=O)NO)cc2F)C1` .
21
